# System: NCI-H522 lung
# Assay protocol: NCI tumour cell line growth inhibition, 48 h
Provide the reported TGI of each item.
Give bare numbers, in µM.

COC(=O)[C@H](Cc1cn(C)cn1)NC(=O)[C@H](CC(=O)OCc1ccccc1)NC(=O)Nc1cc(C(F)(F)F)cc(C(F)(F)F)c1 = 21.4

Ask: Which TGI reading was recorded for the molecule COc1ccc(OC)c(Nc2nc3nonc3nc2Nc2cccc(Br)c2)c1 ?
Result: 0.775

----------
# System: PC-3 prostate
# Assay protocol: NCI tumour cell line growth inhibition, 48 h
Observation type: TGI

Each compound below has a recorded value; state its TGI.
1. COC(=O)C1(C(=O)OC)N=C(C)OC1c1ccccc1O (stereo not drawn)
2. C[C@]12CC[C@H](O[C@@H]3O[C@H](CO[C@@H]4O[C@H](CO)[C@@H](O)[C@H](O)[C@H]4O)[C@@H](O)[C@H](O)[C@H]3O)C[C@@H]1CC[C@@H]1[C@@H]2CC[C@]2(C)[C@@H](C3=CC(=O)OC3)CC[C@]12O
3. CCN(CC)C1Oc2cc3c(cc2C(c2cc(OC)c(O)c(OC)c2)C1C)OCO3 (stereo not drawn)

Result:
1: > 100 µM; 2: > 100 µM; 3: > 75.1 µM

----------
# System: M14 melanoma
# Assay protocol: NCI tumour cell line growth inhibition, 48 h
I'd be grateful if you could share measured TGI for these entries.

Give TGI for each of the items listed below.
1. Nc1ccccc1C#C/C=C\C#Cc1ccccc1C#CCO
2. C[N+](C)(C)CC(=O)N/N=C(\Cc1nc2ccc([N+](=O)[O-])cc2[nH]c1=O)C(=O)Nc1nc2ccc([N+](=O)[O-])cc2s1
3. CC(=O)[CH-]C(=O)c1ccccc1.CC(=O)[CH-]C(=O)c1ccccc1.Cl.[O-]c1ccnc2ccccc12.[O-]c1ccnc2ccccc12.[Ti+4]
4. O=c1nc2sc3ccccc3c(=O)n2[nH]1
5. CCOC(=O)c1cc(=O)n(C)c(=O)n1C
6. NC(=O)c1c(NC(=O)c2cccs2)sc2c1CCC(=O)C2

Result:
["26 µM", "> 100 µM", "> 100 µM", "> 100 µM", "> 100 µM", "> 100 µM"]

----------
# Test system: DU-145 prostate
# Assay protocol: NCI tumour cell line growth inhibition, 48 h
Kindly state TGI for each of the entries shown.

Below are worked cases with known answers.
O=C(Nc1ccncc1)C(=O)c1cn(S(=O)(=O)c2cccc(Cl)c2)c2ccccc12 = > 100 µM
CC(Br)CN1CCOCC1 (stereo unspecified) = > 100 µM
CCOC(=O)CN1C(=O)NC(C)(c2ccccc2)C1=O (stereo unspecified) = > 100 µM

Batch lookup, TGI per entry.
1. CC1(C)CC[C@]2(C(=O)O)CC[C@]3(C)C(=CCC4=C5C[C@H](O)[C@H](O)[C@@](C)(CO)[C@@]5(C)CC[C@]43C)[C@@H]2C1
2. Cc1ccc(C[As+](c2ccccc2)(c2ccccc2)c2ccccc2)cc1
3. C/C(=C\COP(=O)(O)OP(=O)(O)O)CCCCCCOCc1ccccc1

Result:
1: > 100 µM; 2: > 56.8 µM; 3: > 100 µM

----------
Kindly supply the reported TGI values for the records listed here.
# Test system: CAKI-1 renal
# Assay protocol: NCI tumour cell line growth inhibition, 48 h

CCN(CC)C1Oc2cc3c(cc2C(c2cc(OC)c(O)c(OC)c2)C1C)OCO3 (stereo not drawn) = > 72.9 µM
CC1(C)c2ccccc2N2C(c3ccccc3)=NOC21C (stereo not drawn) = > 100 µM
C/C(=N\NC(=O)c1ccncc1)c1sc(-n2nc(-c3ccccc3)cc2-c2ccccc2)nc1C = > 100 µM
C=C1CC[C@@H]2C13[C@@H]1[C@H](CC(=O)[C@@]23C)C1(C)C (stereo partly drawn) = > 100 µM
CCO/C(O)=C(/C(=N)N1CCOCC1)C(=O)NC(C)C = > 100 µM

Take each entry in turn and give its TGI.
1. C=CCCCCCCCCCP(=O)(c1ccccc1)c1ccc2c(c1)OCCOCCOCCOCCO2 (stereo not drawn)
2. CC1(C)C(N2CCOCC2)CS1(=O)=O (stereo not drawn)
3. CN(C)c1ccc(C=Nc2ccc(-c3nc4ccccc4s3)cc2)cc1
4. CC1(C)Cc2c(sc3[nH]c(=S)[nH]c(=S)c23)CS1
5. Cc1ccc(/C=N/NC(=O)c2ccccc2Oc2ccccc2)o1

Result:
> 100 µM
> 10 µM
> 100 µM
> 100 µM
> 100 µM

----------
# Tested on: SK-MEL-2 melanoma
# Assay protocol: NCI tumour cell line growth inhibition, 48 h
Assignment: determine reported TGI for the given compounds.

c1ccc(C2=NOC3C4CCC(C4)C23)cc1 (centres undefined) = > 100 µM

Could you tell me TGI for each of these compounds? They are listed below.
1. c1ccc(C2=NN2c2ccccc2)cc1
2. O=C(/C=C/c1ccccc1)c1cccc2ccccc12
3. O=S1SC(=S)C2C=CC=NC21 (centres undefined)

Result:
> 100 µM
8.3 µM
36.6 µM

----------
# Test system: HCC-2998 colon
# Assay protocol: NCI tumour cell line growth inhibition, 48 h
Record form. Attribute: TGI. Fill in for each entry.

O=C(O)CCC(c1ccccc1)(c1ccccc1)c1ccccc1 = > 100 µM
CCOC(=O)C1=C(C)NC(=O)NC1c1ccc(OC)cc1OC (stereo not drawn) = > 100 µM

Would you kindly look at the next entry?
Ask: Short answer please: TGI, HCC-2998 colon, entry O=C(NN1C(=O)CS(=O)(=O)C1c1ccc(Cl)c(Cl)c1)c1ccncc1 (stereo not drawn)
Result: > 100 µM

----------
# Test system: SF-539 CNS
# Assay protocol: NCI tumour cell line growth inhibition, 48 h
Hi there, I'd appreciate the recorded TGI for every entry that follows.

Completed entries (count: 3):
Nc1nc(SCC(=O)c2ccccc2)c2[nH]cnc2n1 = > 100 µM
C=C(COCO)C(C)=O = 13.6 µM
COC(=O)[C@@H]1C[C@@H](O)CN1C(=O)c1ccc([N+](=O)[O-])cc1[N+](=O)[O-] = > 100 µM

Pending molecule:
Ask: Look up TGI for this molecule: c1ccc(-c2[nH]ncc2-c2ccnc(-c3ccc(OCCN4CCOCC4)cc3)c2)nc1
Result: > 25 µM

----------
# Test system: UO-31 renal
# Assay protocol: NCI tumour cell line growth inhibition, 48 h
Observation type: TGI

Study these solved cases before continuing.
Cn1nnc2c(C(N)=S)ncn2c1=O = > 100 µM
c1ccc(-c2[nH]ncc2-c2ccnc(-c3ccc(OCCN4CCOCC4)cc3)c2)nc1 = > 25 µM
CC(=Nc1ccc(N(C)C)cc1)c1ccccc1 = 40.7 µM

Batch request: TGI per item, same order as input.
1. COC(=O)C1C(C(=O)O)C2(c3ccccc3)C(=O)C1(c1ccccc1)C(c1ccccc1)=C2c1ccccc1 (stereo unspecified)
2. C=C(C)C1CC[C@@](C)(O)[C@H](C#N)C1 (stereo partly specified)
3. N#Cc1c(Cl)cc(C#N)n2c1nc1ccccc12
4. COc1cc(S(=O)(=O)Nc2ccc(-c3csc(N4C(=O)C(C)SC4c4cccs4)n3)cc2)ccc1Cl (stereo unspecified)
5. c1ccc(C2=NOC3C4CCC(C4)C23)cc1 (stereo unspecified)
6. COC(=O)[C@H](Cc1cn(C)cn1)NC(=O)[C@H](CC(=O)OCc1ccccc1)NC(=O)Nc1cc(C(F)(F)F)cc(C(F)(F)F)c1
7. C[C@@H]1S[C@H](c2c(F)cccc2Cl)n2c1nc1ccccc12
8. CC(C)c1oc(=O)cc2c1C(O)C1OC(=O)C3(C)C(O)C4OC4C2(C)C13 (stereo unspecified)

Result:
36 µM
> 100 µM
19 µM
> 100 µM
> 100 µM
24.2 µM
24.2 µM
15.5 µM

For the 8 compounds below, give their TGI values.
1. Cc1cc(C)c(NS(=O)c2cccc(C(F)(F)F)c2)c(C)c1 (stereo unspecified)
2. CC1(C)OCC(CO)(CO)CO1
3. C/C=C/c1cc2c(cc1O)CC[C@@H]1[C@@H]2CC[C@]2(C)[C@@H](O)CC[C@@H]12
4. CC(=O)OC1CCC2OOC1O2 (stereo unspecified)
5. CC(C)(C)OC(=O)N(O)[C@@H]1CC[C@H](n2cnc3c(N)ncnc32)C1
6. CC[C@H](C)[C@@H]([C@@H](CC(=O)N1CCC[C@H]1[C@H](OC)[C@@H](C)C(=O)NCCc1ccccc1)OC)N(C)C(=O)C(NC(=O)[C@H](C(C)C)N(C)C)C(C)C (stereo partly specified)
7. N#C/C(=C\c1c(O)cc(O)cc1O)C(N)=O
8. NS(=O)(=O)c1nnc(NS(=O)(=O)c2ccccc2[N+](=O)[O-])s1

Result:
1. > 100 µM
2. > 100 µM
3. 18.5 µM
4. > 100 µM
5. > 100 µM
6. > 10 µM
7. > 100 µM
8. > 100 µM

Below are some compounds; for each one, tell me its TGI.
1. c1ccc(C2=NN2c2ccccc2)cc1
2. COC(=O)/C=C/CCC#Cc1ccccc1C#CCC/C=C/C(=O)OC

Result:
> 100 µM
> 100 µM

Would you be so kind as to report TGI for each listed record?
1. COc1ccc(N2C(=O)C(Cl)C2c2cc3cc(Br)ccc3nc2Cl)cc1 (stereo unspecified)
2. CCOC(=O)CN1C(=O)NC(C)(c2ccccc2)C1=O (stereo unspecified)
3. Nc1cccc2c1-c1c(cccc1[N+](=O)[O-])C2=O

Result:
["2.43 µM", "> 100 µM", "0.469 µM"]

// input: 2 compounds below; output: TGI for each
1. Cc1[nH]c(C)c(CN(C)C)c1CN(C)C
2. COc1cccc2c1C(=O)c1c(O)c3c(c(O)c1C2=O)C[C@@](O)(C(=O)CO)CC3OC1CC(N)C(OC2CCCCO2)C(C)O1 (stereo partly specified)

Result:
1: > 100 µM; 2: 5.46 µM
